Property: kon; scope: individual binders
# target under test: recombinant cynomolgus monkey CD3ε/δ heterodimer (cynomolgus monkey) (UniProt Q95LI5)
# Sequence (Q95LI5 22-117, stated change not applied, chain 1 of 2): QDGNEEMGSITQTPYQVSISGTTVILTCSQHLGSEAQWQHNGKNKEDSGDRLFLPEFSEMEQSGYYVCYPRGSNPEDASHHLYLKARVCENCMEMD
# Sequence (Q95LI8 22-105, stated change not applied, chain 2 of 2, further chain): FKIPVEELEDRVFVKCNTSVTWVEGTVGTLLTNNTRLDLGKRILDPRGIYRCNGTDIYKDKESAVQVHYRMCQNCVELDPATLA
# assay explanation: BLI (Octet), antigen on anti-Penta His sensor, antibody 50 nM
Write the number in M⁻¹ s⁻¹ without appending the unit.

Lookup: Return the recorded kon value; entry: C07 (antibody, human IgG1, lambda, L234A L235A, V domains shown) VH: EVQLVESGGGLVQPGGSLKLSCAASGFTFNTYAMNWVRQASGKGLEWVGRIRSKYNNYATYYADSVKDRFTISRDDSQSTAYLQMNSLKTEDTAVYYCVRHGNFGNSYVSWFAYWGQGTLVTVSS VL: QAVVTQEPSLTVSPGGTVTLTCRSSTGAVTTSNYANWFQQKPGQAPRGLIGGTNKRAPWTPARFSGSLLGGKAALTLSGAQPEDEAEYYCALWYSNLWVFGGGTKLTVLG
Found: 194000

Lookup: Return the recorded kon value; entry: B16 (antibody, human IgG1, lambda, L234A L235A, V domains shown) VH: EVQLVESGGGLVQPGGSLKLSCAASGFTFNTYAMNWVRQASGKGLEWVGRIRSKYNNYATYYADSVKDRFTISRDDSKNTLYLQMNSLKTEDTAVYYCVRHGNFGNSYVSWFAYWGQGTLVTVSS VL: QAVVTQEPSLTVSPGGTVTLTCRSSTGAVTTSNYANWVQQKPGQAPRGLIGGTNKRAPWTPARFSGSLLGDKAALTLSGAQPEDEAEYYCALWYSNLWVFGGGTKLTVLG
Found: 466000

Lookup: Return the recorded kon value; entry: B15 (antibody, human IgG1, lambda, L234A L235A, V domains shown) VH: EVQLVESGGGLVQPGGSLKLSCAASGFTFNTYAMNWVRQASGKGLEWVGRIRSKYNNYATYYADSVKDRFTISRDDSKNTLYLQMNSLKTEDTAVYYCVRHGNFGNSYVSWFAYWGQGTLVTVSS VL: QAVVTQEPSLTVSPGGTVTLTCRSSTGAVTTSNYANWVQQKPGQAPRGLIGGTNKRAPWTPARFSGSLLGGKAALTLSGAQPEDEAEYYCALWYSNLWVFGGGTKLTVLG
Found: 523000

Lookup: Return the recorded kon value; entry: A16 (antibody, human IgG1, lambda, L234A L235A, V domains shown) VH: EVQLVESGGGLVQPGGSLKLSCAASGFTFNTYAMNWVRQASGKGLEWVGRIRSKYNNYATYYADSVKDRFTISRDDSKNTAYLQMNSLKTEDTAVYYCVRHGNFGNSYVSWFAYWGQGTLVTVSS VL: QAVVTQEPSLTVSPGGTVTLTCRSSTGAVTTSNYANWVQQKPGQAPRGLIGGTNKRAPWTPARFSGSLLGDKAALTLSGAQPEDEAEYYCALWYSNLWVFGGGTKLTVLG
Found: 370000

Lookup: Return the recorded kon value; entry: B08 (antibody, human IgG1, lambda, L234A L235A, V domains shown) VH: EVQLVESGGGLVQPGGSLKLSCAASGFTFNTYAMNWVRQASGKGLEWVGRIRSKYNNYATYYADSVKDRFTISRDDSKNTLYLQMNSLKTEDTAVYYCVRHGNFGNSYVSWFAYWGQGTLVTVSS VL: QAVVTQEPSLTVSPGGTVTLTCRSSTGAVTTSNYANWFQQKPGQAPRGLIGGTNKRAPWTPARFSGSLLGDKAALTLSGAQPEDEAEYYCALWYSNLWVFGGGTKLTVLG
Found: 199000
